The values you see were collected from the nanobody polyreactivity screen of Harvey et al. (2022).

# protocol.details: yeast display, Sf9 membrane polyspecificity reagent, FACS + sequencing; frameworks hold sequencing errors
quantity.name: polyreactivity (PSR sort gate)

Examples from the recorded data:
{"construct.sequence": "QVQLVESGGGLDQAGGSLRLSCAASGSTFYPYAMGWYRQAPGKERDFVAAISYSAGSTYYADSVKGRFTISRDNAKNTVYLQMHSLKPEDTAVYYCADYGWYTYQTSYDYWGQGTQVTVSS", "result": "low polyreactivity"}
{"construct.sequence": "QVQLVESGGGLVQAGGSLRLSCAASGSTFLYYAMGWYRPAPGKERELVAAISSGDSTYADSVKGRFTISRDNAKNTVYLQMNSLKPEDTAVYYCNTVLYPYWQWDYEFDYWGQGTQVTVSS", "result": "low polyreactivity"}
{"construct.sequence": "QVQLVESGGGLVQAGGSLRLSCAASGLILANYAMGWYRQAPGKERELVAAISSSGGSTYYADSVKGRFTISRDNAKNTVYLQMNSLKPEDTAVYYCAAYPLYRRRWTGDYWGQGTQVTVSS", "result": "high polyreactivity"}
{"construct.sequence": "QVQLVESGGGLVQAGGSLRLSCAASGRIFTRNAMGWYRQAPGKEREFVAAISSSGSSTYFADSVKGRFTISRDNAKNTVYLQMNSLKPEDTAVYYCAARVTSPVSHDRVDYWGQGTQVTVSS", "result": "high polyreactivity"}

Could you now look at the following sequence, please?
For QFQLVESGGGLVQAGGSLRLSCAASGFIFTNYAMGWYRQAPGKEWELVAAINRSGGRTYYADSVKGRFTISRDNAKNTVYLQMNSLKPEDNAVYYCAAKGVSYRPAYDYWGQGTQVTVSS , what is its reported polyreactivity (PSR sort gate)? high polyreactivity
